Data provenance is patent US5990170A.

The molecules listed here are annotated with their solubility.
experiment description: Solubility in water and organic solvents
stated conditions: dmso, organic solvent or mixture
readout name: solubility

{"molecule": "CCCCCC/C=C\\CCCCCCCC(=O)NCCO [Example 19, N-(2-hydroxyethyl)-palmitoleylamide]", "readout name": "solubility", "value reported": "> 10000 µg/mL"}
{"molecule": "CCCCCCCCCCCCCCCCCC(=O)NCc1ccc(O)c(OC)c1", "readout name": "solubility", "value reported": "> 10000 µg/mL"}
{"molecule": "O=C(/C=C/CCCCCCCCC(=O)NCCCCO)NCCCCO", "readout name": "solubility", "value reported": "> 5000 µg/mL"}
{"molecule": "CCCCCCCCCCCC(=O)N1CCOCC1", "readout name": "solubility", "value reported": "> 10000 µg/mL"}
{"molecule": "CCCCCCCCCCCC(=O)NCCc1ccc(O)cc1 [Example 11, N-(p-hydroxyphenylethyl)-lauroylamide]", "readout name": "solubility", "value reported": "> 10000 µg/mL"}
{"molecule": "CCCCCCCCCCCCCCCC(=O)NCCc1ccc(O)cc1 [Example 34, N-(p-hydroxy-phenylethyl)-palmitoylamide]", "readout name": "solubility", "value reported": "> 10000 µg/mL"}
{"molecule": "C=CCCCCCCCCC(=O)NCCO [Example 28, N-(2-hydroxyethyl)-10-undecenoylamide]", "readout name": "solubility", "value reported": "> 10000 µg/mL"}
{"molecule": "CCCCCCCCCCCC(=O)N[C@H](C)[C@@H](O)c1ccccc1 [Example 6, N-lauroyl-[(1S,2R)-(+)-norephedrine]]", "readout name": "solubility", "value reported": "> 10000 µg/mL"}
{"molecule": "CCCCCCCCCCCCCCCC(=O)N[C@@H](C)CO [Example 31, N-palmitoyl-[S(+)-2-amino-1-propanol]]", "readout name": "solubility", "value reported": "> 5000 µg/mL"}
{"molecule": "CCCCCCCCCCCCCCCC(=O)N[C@@H](CO)[C@@H](O)c1ccccc1", "readout name": "solubility", "value reported": "> 10000 µg/mL"}
{"molecule": "CCCCCCCCCCCCCCCC(=O)NCCOP(=O)(O)OCC(O)CO (stereo not drawn) [Example 16, N-palmitoylethanolamine glycerophosphate]", "readout name": "solubility", "value reported": "> 10000 µg/mL"}
{"molecule": "CCCCCCCCCCCCCCCC(=O)N[C@@H](C)[C@H](O)c1ccccc1 [Example 7, N-palmitoyl-[(1R,2S)-(-)-norephedrine]]", "readout name": "solubility", "value reported": "> 10000 µg/mL"}
{"molecule": "CCCCCCCCCCCCCCCC(=O)N[C@@H](CO)c1ccccc1", "readout name": "solubility", "value reported": "> 10000 µg/mL"}
{"molecule": "CCCCCCCCCCCC(=O)NCCCCO [Example 18, N-(4-hydroxybutyl)-lauroylamide]", "readout name": "solubility", "value reported": "> 10000 µg/mL"}
{"molecule": "CCCCCCCCCCCC(=O)NCCO [Example 22, N-(2-hydroxyethyl)-lauroylamide]", "readout name": "solubility", "value reported": "> 10000 µg/mL"}
{"molecule": "CCCCCCCCCCCCCCCC(=O)N[C@H](C)[C@@H](O)c1ccccc1 [Example 5, N-palmitoyl-[(1S,2R)-(+)-norephedrine]]", "readout name": "solubility", "value reported": "> 10000 µg/mL"}
{"molecule": "CCCCCCCCCCCCCCCC(=O)N(C)CCO", "readout name": "solubility", "value reported": "> 10000 µg/mL"}
{"molecule": "CCCCCCCCCCCCCCCC(=O)N1CCOCC1", "readout name": "solubility", "value reported": "> 10000 µg/mL"}
